Values were extracted from ChEMBL document CHEMBL5634144.

- target under test: Serine/threonine-protein kinase DCLK1 (Homo sapiens, UniProt O15075)
- Sequence (O15075 whole entry): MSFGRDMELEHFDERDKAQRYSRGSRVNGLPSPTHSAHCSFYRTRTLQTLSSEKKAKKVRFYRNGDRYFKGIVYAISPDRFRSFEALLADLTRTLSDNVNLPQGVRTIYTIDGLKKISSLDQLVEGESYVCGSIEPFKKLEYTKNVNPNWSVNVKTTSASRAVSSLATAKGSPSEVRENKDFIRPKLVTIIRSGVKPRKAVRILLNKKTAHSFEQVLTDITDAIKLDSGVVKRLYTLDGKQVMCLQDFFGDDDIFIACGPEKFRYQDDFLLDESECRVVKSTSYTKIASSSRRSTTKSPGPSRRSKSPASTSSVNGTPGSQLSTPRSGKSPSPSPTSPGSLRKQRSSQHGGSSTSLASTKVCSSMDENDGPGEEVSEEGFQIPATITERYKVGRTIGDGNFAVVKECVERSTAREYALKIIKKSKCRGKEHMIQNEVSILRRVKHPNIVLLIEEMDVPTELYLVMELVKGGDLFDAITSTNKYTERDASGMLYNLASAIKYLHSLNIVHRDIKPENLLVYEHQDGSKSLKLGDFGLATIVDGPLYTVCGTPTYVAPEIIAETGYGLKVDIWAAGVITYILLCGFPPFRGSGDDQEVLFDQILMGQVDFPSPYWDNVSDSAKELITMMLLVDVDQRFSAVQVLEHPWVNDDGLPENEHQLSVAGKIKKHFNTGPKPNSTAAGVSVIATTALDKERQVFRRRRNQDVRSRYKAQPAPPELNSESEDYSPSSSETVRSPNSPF
- assay comment: Inhibition of DCLK1 (unknown origin) in presence of 33P-ATP
outcome measure: IC50 (nM)
Answers are plain numbers, in nM.

Given "COc1cc(N2CCN(C)CC2)ccc1Nc1ncc2c(n1)N(C)c1ccccc1C(=O)N2CC(F)(F)F" , state its recorded IC50.
57.2

* * *

- assay comment: Metabolic stability in mouse liver microsomes assessed as half life at 1 uM preincubated for 10 mins followed by NADPH measured for 60 mins by LC-MS/MS analysis
- Assay type: ADME, Microsome
- experimental setup: time 70 min
outcome measure: half-life at 1 µM (min)
Numbers only, in min.

Endpoint output: half-life at 1 µM of "COc1cc(N2CCN(C)CC2)ccc1Nc1nc(Nc2ccccc2S(=O)(=O)C(C)C)c2nc[nH]c2n1" . Value?
45.9
